Source listed as ChEMBL document CHEMBL1764984.

Assay: Half life in Beagle dog at 10 mg/kg, po
Format: ADME, organism-based, Canis lupus familiaris
Design: dose 10 mg/kg, route oral
Settings: in vivo
Property Label: half-life
Please report the result as a number followed by the unit.

The reported half-life of the molecule Cl.Cn1c(=O)c(Oc2ccc(F)cc2F)cc2cnc(NC3CCOCC3)nc21 [R-1487 HYDROCHLORIDE] was 2.23 h

###

Tested on: Blood
Assay: Inhibition of TNFalpha-induced IL1-beta production in human whole blood after 2 to 5 hrs by ELISA
Format: functional, tissue-based
List of IC50 values.
Report the figure in nM without appending any unit label.

The reported IC50 of the molecule CC(C)(O)Cn1c(=O)c(Oc2ccc(F)cc2F)cc2cnc(NC3CCOCC3)nc21 was 84

The reported IC50 of the molecule C[C@H](CS(C)(=O)=O)Nc1ncc2cc(Oc3ccc(F)cc3F)c(=O)n(C)c2n1 was 50

The reported IC50 of the molecule N#CCn1c(=O)c(Oc2ccc(F)cc2F)cc2cnc(NC3CCOCC3)nc21 was 28

The reported IC50 of the molecule Cn1c(=O)c(Oc2ccc(F)cc2F)cc2cnc(NC(CO)CO)nc21 was 189

The reported IC50 of the molecule Cn1c(=O)c(-c2ccccc2Cl)cc2cnc(NC3CCOCC3)nc21 was 85.7

The reported IC50 of the molecule Cn1c(=O)c(Oc2ccc(F)cc2F)cc2cnc(NC3CCS(=O)(=O)CC3)nc21 was 769

###

Test: Plasma protein binding in Beagle dog by untrafiltration method
Assay type: ADME, cell-free, Canis lupus familiaris
Conditions: read-out: PPB (converted)
Property Label: fraction unbound
Format: numeric value only, no unit, no commentary.

The reported fraction unbound of the compound Cl.Cn1c(=O)c(Oc2ccc(F)cc2F)cc2cnc(NC3CCOCC3)nc21 [R-1487 HYDROCHLORIDE] was 0.096

###

Assay: Oral bioavailability in cynomolgus monkey at 10 mg/kg
Assay type: ADME, organism-based, Macaca fascicularis
Details: in vivo
Property Label: bioavailability (%)
Report the figure in % without appending any unit label.

The reported bioavailability of the molecule Cn1c(=O)c(Oc2ccc(F)cc2F)cc2cnc(NC3CCOCC3)nc21 [R-1487] was 51.6

###

Test: Oral bioavailability in cynomolgus monkey at 5 mg/kg
Assay type: ADME, organism-based, Macaca fascicularis
Details: in vivo
Property Label: bioavailability

The reported bioavailability of the molecule Cn1c(=O)c(Oc2ccc(F)cc2F)cc2cnc(NC(CCO)CCO)nc21 [PAMAPIMOD] was > 100%

###

Assay: Plasma protein binding in cynomolgus monkey by untrafiltration method
Format: ADME, cell-free, Macaca fascicularis
Details: read-out: PPB (converted)
List of fraction unbound values.
Format: numeric value only, no unit, no commentary.

Line Notation	Property Label	Numeric Readout
Cn1c(=O)c(Oc2ccc(F)cc2F)cc2cnc(NC(CCO)CCO)nc21	fraction unbound	0.146

Kindly review the next molecule as well.
The reported fraction unbound of the molecule Cn1c(=O)c(Oc2ccc(F)cc2F)cc2cnc(NC3CCOCC3)nc21 was 0.046

###

System: Blood
Experiment: Inhibition of TNFalpha-induced IL1-beta production in human whole blood after 2 to 5 hrs by ELISA
Type: functional, tissue-based
List of pIC50 values.
The scale used: pIC50 is minus the common logarithm of the concentration in molar units.

Past entries and their recorded results:
Line Notation	pIC50
CS(=O)(=O)CCn1c(=O)c(Oc2ccc(F)cc2F)cc2cnc(NC3CCOCC3)nc21	6.51
CC(=O)N1CCC(Nc2ncc3cc(Oc4ccc(F)cc4F)c(=O)n(C)c3n2)CC1	7.52
CS(=O)(=O)N1CCC(n2c(=O)c(Oc3ccc(F)cc3F)cc3cnc(NC4CCOCC4)nc32)CC1	7.28
CC(C)Nc1ncc2cc(Oc3ccc(F)cc3F)c(=O)n(C)c2n1	7.35
CS(=O)(=O)CCCn1c(=O)c(Oc2ccc(F)cc2F)cc2cnc(NC3CCOCC3)nc21	7.74

The reported pIC50 of the compound O=c1c(Oc2ccc(F)cc2F)cc2cnc(NC3CCOCC3)nc2n1C1CC1 was 7.89

The reported pIC50 of the compound O=c1[nH]c2nc(NC3CCOCC3)ncc2cc1Oc1ccc(F)cc1F was 7.08

The reported pIC50 of the compound Cn1c(=O)c(Cc2ccc(F)cc2F)cc2cnc(NC3CCOCC3)nc21 was 6.15

The reported pIC50 of the compound Cn1c(=O)c(Oc2ccc(F)cc2F)cc2cnc(N[C@H]3CC[C@H](O)CC3)nc21 was 7.17

The reported pIC50 of the compound Cn1c(=O)c(Oc2cccc(F)c2)cc2cnc(NC3CCOCC3)nc21 was 5.91
